biological target: N-term biotin J-peptide (Homo sapiens, UniProt P00533, DELINS30-297G); experiment: Antibody specificity by ELISA; settings: ELISA binding, avidin pre-coated plates

Molecule: H1H1911N: human IgG1 Fc anti-EGFRvIII antibody with variable domains 1911; HCVR/LCVR SEQ ID NOs 50/58 (antibody, V domains shown, human IgG1 Fc) VH: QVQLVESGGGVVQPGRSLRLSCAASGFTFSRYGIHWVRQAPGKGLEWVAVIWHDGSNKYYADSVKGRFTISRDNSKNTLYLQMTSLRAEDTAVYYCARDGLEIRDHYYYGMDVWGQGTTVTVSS VL: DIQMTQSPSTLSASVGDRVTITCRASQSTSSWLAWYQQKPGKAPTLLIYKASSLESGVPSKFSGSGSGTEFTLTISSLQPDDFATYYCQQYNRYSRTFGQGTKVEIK
EC50: > 10 nM
--
Molecule: H1H2195P: human IgG1 Fc anti-EGFRvIII antibody; HCVR/LCVR SEQ ID NOs 18/26 (antibody, V domains shown, human IgG1 Fc) VH: QVQLVESGGGVVQPGRSRRLSCVGSGFIFSSYGMHWVRQAPGKGLEWVALIFYDGSNEYYVDSVKGRFTISRDNSKNTLYLQMNSLRAEDTAVYYCAREGYSQRYKYYFGMDVWGQGTTVTVSS VL: DIQMTQSPSSVSASVGDRVTITCRASQGISSWLAWYQQQPGKAPKLLIYAASSLQSGVPSRFSGSGSGTDFTLTISSLQPEDFATYYCQQTNSFPLTFGGGTKVEIKR
EC50: > 10 nM
--
Molecule: H1H1915N: human IgG1 Fc anti-EGFRvIII antibody with variable domains 1915; HCVR/LCVR SEQ ID NOs 82/90 (antibody, V domains shown, human IgG1 Fc) VH: QVQLVESGGGVVQPGRSLRLSCAASGFTFSAYAMHWVRQAPGKGLEWVAVIWYDGSNKNYADSVKGRFTVSRDNSKNTLYLEMNSLRAEDTAVYYCARDLMVGVTNYWGQGTLVTVST VL: DVVMTQSPLSLPVALGQPASISCRSSQSLVYTDGNTYLNWFHQRPGQSPRRLIYKVSNRDSGVPDRFTGSGSGTDFTLKISRVEAEDVGVFYCMQGSHWPPYTFGQGTKLEIK
EC50: > 10 nM
